Hello, the source for this data is patent US9708359B2, in case you need it.

# System: Vero76
# PROTOCOL CONDITIONS: Vero76 cells, parallel to DENV-2 assay
READOUT NAME: CC50

- MOLECULE SMILES: "Cc1nc(N)c2c(C(N)=O)cn([C@@H]3O[C@H](CO)[C@@H](O)[C@H]3O)c2n1"
  MEASUREMENT: "> 100 µM"

====

Recorded measurements of pEC50, one per entry
# Test system: mouse norovirus
# EXPERIMENT DESCRIPTION: Mouse Norovirus (MNV) assay in RAW cells
# PROTOCOL CONDITIONS: murine norovirus, Table 7
pEC50: −log10 of the molar value.

- MOLECULE: "CCCCCCCCC(=O)Oc1ccc(COP(=O)(OCc2ccc(OC(=O)CCCCCCCC)cc2)OP(=O)(O)OC[C@H]2O[C@@H](n3cc(C(N)=O)c4c(N)nc(C)nc43)[C@H](O)[C@@H]2O)cc1"
  pEC50: 5.13
- MOLECULE: "Cc1nc(N)c2c(C(N)=O)cn([C@@H]3O[C@H](COC(=O)[C@@H](N)Cc4ccccc4)[C@@H](O)[C@H]3O)c2n1"
  pEC50: 5.66
- MOLECULE: "Cc1nc(N)c2c(C(N)=O)cn([C@@H]3O[C@H](COP(=O)(N[C@@H](C)C(=O)OC(C)C)OCc4ccccc4C)[C@@H](O)[C@H]3O)c2n1 (stereo partly drawn)"
  pEC50: 4.70
- MOLECULE: "CCCCCCCCCCCCCCCCOCCCOC(=O)[C@H](C)NP(=O)(O)OC[C@H]1O[C@@H](n2cc(C(N)=O)c3c(N)nc(C)nc32)[C@H](O)[C@@H]1O"
  pEC50: 4.58
- MOLECULE: "Cc1nc(N)c2c(C(N)=O)cn([C@@H]3O[C@H](COP(=O)(N[C@@H](C)C(=O)OC(C)C)Oc4ccccc4)[C@@H](OC(=O)C(C)C)[C@H]3OC(=O)C(C)C)c2n1 (stereo partly drawn)"
  pEC50: 4.59
- MOLECULE: "Cc1nc(N)c2c(C(N)=O)cn([C@@H]3O[C@H](COP(=O)(N[C@@H](C)C(=O)OCc4ccccc4)Oc4ccccc4)[C@@H](O)[C@H]3O)c2n1 (stereo partly drawn)"
  pEC50: 4.74
- MOLECULE: "CCCCCCCCCCCCCCCCOCCC(=O)OC[C@H]1O[C@@H](n2cc(C(N)=O)c3c(N)nc(C)nc32)[C@H](O)[C@@H]1O"
  pEC50: 5.46
- MOLECULE: "CCCCCCCCCCCCCCCCOCCCOC(=O)[C@H](C)NP(=O)(OC[C@H]1O[C@@H](n2cc(C(N)=O)c3c(N)nc(C)nc32)[C@H](O)[C@@H]1O)Oc1ccccc1 (stereo partly drawn)"
  pEC50: 5.64
- MOLECULE: "Cc1nc(N)c2c(C(N)=O)cn([C@@H]3O[C@H](COC(=O)[C@H](C)N)[C@@H](O)[C@H]3O)c2n1"
  pEC50: 5.70
- MOLECULE: "COC(=O)[C@H](C)NP(=O)(OC[C@H]1O[C@@H](n2cc(C(N)=O)c3c(N)nc(C)nc32)[C@H](O)[C@@H]1O)Oc1ccccc1 (stereo partly drawn)"
  pEC50: 4.68
